Each recorded value in this set is attributed to patent US11912686B2.

biological target: human LPAR1 (Homo sapiens (Human), UniProt Q92633); assay: LPAR1 intracellular calcium mobilization assay (antagonist mode, FLIPR); type: cell-based; conditions: CHO-K1 EDG2 cells expressing human LPAR1, LPA 18:2 at EC80 (100 nM), test compound 0.5 nM to 10 μM
Sequence (Q92633 whole entry): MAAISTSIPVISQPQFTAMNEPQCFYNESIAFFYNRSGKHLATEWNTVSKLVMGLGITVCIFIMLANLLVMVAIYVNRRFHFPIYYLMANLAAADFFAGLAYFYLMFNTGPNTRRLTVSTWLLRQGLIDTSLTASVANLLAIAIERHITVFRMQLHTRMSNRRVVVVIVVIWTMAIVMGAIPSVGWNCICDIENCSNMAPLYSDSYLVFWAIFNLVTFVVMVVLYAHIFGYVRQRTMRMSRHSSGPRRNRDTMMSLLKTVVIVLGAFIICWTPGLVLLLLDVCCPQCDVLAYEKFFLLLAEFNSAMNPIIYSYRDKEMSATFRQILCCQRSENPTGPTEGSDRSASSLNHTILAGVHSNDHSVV
Each entry below carries its recorded EC50.
Measurement type: EC50 (nM)

C[C@@H](OC(=O)Nc1c(-c2ncc(NC(=O)[C@]3(C#N)C[C@H]3C(F)F)cn2)nnn1C)c1cc(F)cnc1Cl [Compound 286]; 104
C[C@@H](OC(=O)Nc1c(-c2ccc(NC(=O)C#CC(C)(C)O)cn2)nnn1C)c1cccnc1Cl [Compound 111]; 191
C[C@@H](OC(=O)Nc1c(-c2ccc(NC(=O)[C@H]3C[C@](O)(C#N)C3)cn2)nnn1C)c1cccnc1Cl [Compound 140]; 349
C[C@@H](OC(=O)Nc1c(-c2ccc(NC(=O)C3(C#N)CC(F)(F)C3)cn2)nnn1C)c1cccnc1Cl [Compound 186]; 100
C[C@@H](OC(=O)Nc1c(-c2ccc(NC(=O)c3ccnc(C#N)c3)cn2)nnn1C)c1cccnc1Cl [Compound 100]; 90.8
C[C@@H](OC(=O)Nc1c(-c2ccc(NC(=O)C3CCC3C#N)cn2)nnn1C)c1cccnc1Cl (some centres unmarked) [Compound 142]; 217
C[C@@H](OC(=O)Nc1c(-c2ccc(NC(=O)C3(C)COC3)cn2)nnn1C)c1cccnc1Cl [Compound 97]; 395
C[C@@H](OC(=O)Nc1c(-c2ccc(NC(=O)C3(C#N)CC(=O)C3)cn2)nnn1C)c1cccnc1Cl [Compound 141]; 459
